target: laccase from Trametes versicolor; test: Laccase inhibition kinetic study; format: biochemical; details: determined in this study for 32 (table cites [75]), SD = 5.75 (%)
Quantity Name: Ki (µM)
Give the quantity in µM, number only.

Param item: O=C(N/N=C/c1c(O)cc(O)c(/C=N/NC(=O)c2ccc(O)cc2)c1O)c1ccc(O)cc1 [compound 32] ; param system: laccase from Trametes versicolor; output Ki: 194

====

tested on: rapeseed (Brassica napus L. var. napus) seeds; test: Phytotest 1: phytotoxicity, seed germination and root growth; type: in vivo; details: 50 µg/mL; versus water–ethanol 0.5% (v/v) control; <90% inhibition, 90–110% no effect, >110% stimulation
Quantity Name: Germination index (GI), rapeseed, test 1

Some entries whose results are on file:
| Smiles | Germination index (GI), rapeseed, test 1 |
| --- | --- |
| CC(C)(C)c1cccc(/C=N/NC(=O)c2ccc(O)cc2)c1O | 67% |
| CC(C)(C)c1cc(/C=N/NC(=O)c2ccc(O)cc2)c(O)c(C(C)(C)C)c1 | 83% |

Measured Germination index (GI), rapeseed, test 1 of `COc1cc(/C=N/NC(=O)c2ccc(O)cc2)ccc1O` : 81%

====

Test system: sunflower (Helianthus annuus L.) seeds
Assay: Phytotest 1: phytotoxicity, seed germination and root growth
Format: in vivo
Conditions: 50 µg/mL; versus water–ethanol 0.5% (v/v) control; <90% inhibition, 90–110% no effect, >110% stimulation
Excerpt: In the experiments with plants, two aspects were taken under consideration: (1) phytotoxicity, which determined the toxicity of the hydrazide–hydrazones on seed germination and root growth, and (2) study on the behavior of seeds in the presence of the tested hydrazide–hydrazones and pathogens producing laccase (B. cinerea and S. sclerotiorum). […]
Quantity Name: Germination index (GI), sunflower, test 1

| Compound | System Name | Recorded Value |
| --- | --- | --- |
| O=C(N/N=C/c1cccc(-c2ccccc2)c1O)c1ccc(O)cc1 [compound 19] | sunflower (Helianthus annuus L.) seeds | no effect |
| CC(C)(C)c1cccc(/C=N/NC(=O)c2ccc(O)cc2)c1O [compound 18] | sunflower (Helianthus annuus L.) seeds | no effect |
